Assay: LogP by HPLC on reversed phase columns (EEC directive 79/831 Annex V.A8)
Assay type: physicochemical
Conditions: reversed phase HPLC columns, method [a]: LC-UV, acidic range, 0.1% formic acid in water and acetonitrile as eluent (linear gradient 10% to 95% acetonitrile)
So basically: is chromatographic logP under 4? Then 1. Not under? Then -1.

{"Molecule": "CNC(=S)SC[C@H](NC(=O)c1sc(Cl)c(Cl)c1Cl)C(=O)OC [I.140]", "Assigned Class": 1}
{"Molecule": "CCOC(=O)C(CSC)NC(=O)c1sc(Cl)c(Cl)c1Cl (stereo not shown) [I.143]", "Assigned Class": -1}
{"Molecule": "COC(=O)C[C@H](NC(=O)c1sc(Cl)c(Cl)c1Cl)C(=O)OC [I.144]", "Assigned Class": 1}
{"Molecule": "COC(=O)[C@H](CC(=O)OC(C)(C)C)NC(=O)c1sc(Cl)c(Cl)c1Cl [I.136]", "Assigned Class": -1}
{"Molecule": "CCOC(=O)CC[C@H](NC(=O)c1sc(Cl)c(Cl)c1Cl)C(=O)OCC [I.137]", "Assigned Class": -1}
{"Molecule": "CC(C)[C@H](NC(=O)c1sc(Cl)c(Cl)c1Cl)C(N)=O [I.147]", "Assigned Class": 1}
{"Molecule": "CCOC(=O)C[C@H](NC(=O)c1sc(Cl)c(Cl)c1Cl)C(=O)OCC [I.138]", "Assigned Class": -1}
{"Molecule": "CCOC(=O)C(CSC(C)=O)NC(=O)c1sc(Cl)c(Cl)c1Cl (stereo not shown) [I.145]", "Assigned Class": 1}
{"Molecule": "COC(=O)CC[C@H](NC(=O)c1sc(Cl)c(Cl)c1Cl)C(=O)OC [I.139]", "Assigned Class": 1}
{"Molecule": "COC(=O)C(NC(=O)c1sc(Cl)c(Cl)c1Cl)c1cccs1 (stereo not shown) [I.124]", "Assigned Class": -1}

###

Test system: Pseudomonas syringae pv. tomato
Experiment: In vivo preventive test on Pseudomonas syringae pv. tomato (bacterial speck on tomato)
Conditions: 31 ppm of active ingredient, evaluated 5 or 6 days after inoculation, read-out: efficacy
Let's look at some molecules and their measured pest or weed control at 31 ppm.
Measured Parameter: pest or weed control at 31 ppm

{"Molecule": "COC(=O)C[C@H](NC(=O)c1sc(Cl)c(Cl)c1Cl)C(=O)OC [I.144]", "Measured Parameter": "pest or weed control at 31 ppm", "Result": "80 to 89%"}
{"Molecule": "CCOC(=O)C(CSC)NC(=O)c1sc(Cl)c(Cl)c1Cl (stereo not shown) [I.143]", "Measured Parameter": "pest or weed control at 31 ppm", "Result": "90 to 100%"}
{"Molecule": "CCOC(=O)C[C@H](NC(=O)c1sc(Cl)c(Cl)c1Cl)C(=O)OCC [I.138]", "Measured Parameter": "pest or weed control at 31 ppm", "Result": "90 to 100%"}
{"Molecule": "COC(=O)[C@@H](NC(=O)c1sc(Cl)c(Cl)c1Cl)C(C)C [CMP4, reference compound]", "Measured Parameter": "pest or weed control at 31 ppm", "Result": "0%"}

###

Test system: Pseudomonas syringae pv. tomato
Test: In vivo preventive test on Pseudomonas syringae pv. tomato (bacterial speck on tomato)
Conditions: 31 ppm of active ingredient, evaluated 5 or 6 days after inoculation, read-out: efficacy
Measured Parameter: pest or weed control at 31 ppm

{"Compound": "CNC(=S)SC[C@H](NC(=O)c1sc(Cl)c(Cl)c1Cl)C(=O)OC [I.140]", "Study Target": "Pseudomonas syringae pv. tomato", "Result": "70 to 79%"}
{"Compound": "COC(=O)C(CC(F)F)NC(=O)c1sc(Cl)c(Cl)c1Cl (centres unmarked) [I.016]", "Study Target": "Pseudomonas syringae pv. tomato", "Result": "70 to 79%"}
{"Compound": "COC(=O)C(Cc1c[nH]cn1)NC(=O)c1sc(Cl)c(Cl)c1Cl (centres unmarked) [I.012]", "Study Target": "Pseudomonas syringae pv. tomato", "Result": "≥ 70%"}
{"Compound": "COC(=O)[C@H](CSC(=O)N(C)C)NC(=O)c1sc(Cl)c(Cl)c1Cl [I.142]", "Study Target": "Pseudomonas syringae pv. tomato", "Result": "70 to 79%"}
{"Compound": "COC(=O)[C@H](CC(N)=O)NC(=O)c1sc(Cl)c(Cl)c1Cl [I.015]", "Study Target": "Pseudomonas syringae pv. tomato", "Result": "80 to 89%"}

Cited source: patent US20230055705A1
